Target: T1, TNFR2-His (Sino Biological, 10417-H08H, NP_001057.1 Met1-Asp257, with multi-histidine tag expressed on … (human, UniProt P20333 23-257))
T1 construct: range 1-257; Bought protein; also called recombinant human TNFR2 protein; TNFR2-His antigen; not shown: C-terminal multi-histidine tag
T1 sequence (looked up): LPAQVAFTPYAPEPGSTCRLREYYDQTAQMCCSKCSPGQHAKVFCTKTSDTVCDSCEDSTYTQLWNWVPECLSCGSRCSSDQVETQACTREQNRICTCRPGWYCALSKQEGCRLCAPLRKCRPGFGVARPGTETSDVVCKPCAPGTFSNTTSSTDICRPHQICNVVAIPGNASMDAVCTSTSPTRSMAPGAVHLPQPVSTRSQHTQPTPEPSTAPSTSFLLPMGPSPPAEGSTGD
Test: BLI, antibody captured on AHC probe, TNFR2 in solution
reported-metric: kon (M⁻¹ s⁻¹)
Quick reminder: number only, in M⁻¹ s⁻¹, skip the unit.

// below: answered binders
binder	measurement-units	kon
human-mouse chimeric TNFR2 monoclonal antibody 12E12-hFc (antibody, V domains shown, Mouse V regions of clone 12E12 with human constant regions; also called human-mouse chimeric 12E12 antibody) VH: EVQLQQSGAELVKPGASVKLSCTVSGFNIKDFYIHWVKQRPEQGLEWIGRVDPEDGNTEYAPNFQDRATMTTDTSSNTAYLQLSSLTSVDTAVYYCSTWDGFSYFDYWGLGTTLTVSS VL: QAVVTQESALTTSPGETVTLTCRSSTGPVTTNNYANWVQEKPDHLFTGLIGGTNDRAPGVPARFSGSLIGDKTALTITGTQTEDEAVYFCALWYRNHWVFGGGTKLTVL	M⁻¹ s⁻¹	659000
12E12huVH5 + huVL2(P07286) (antibody, V domains shown, Humanized 12E12) VH: EVQLVQSGAEVKKPGATVKISCKVSGFNIKDFYIHWVQQAPGKGLEWIGRVDPEDGNTEYAEKFQGRVTITADTSTDTAYMELSSLRSEDTAVYYCSTWDGFSYFDYWGQGTTVTVSS VL: QAVVTQEPSLTVSPGGTVTLTCRSSTGPVTTNNYANWVQQKPGQAFRGLIGGTNDRAPGVPARFSGSLLGGKAALTLSGAQPEDEAEYYCALWYRNHWVFGGGTKLTVL	M⁻¹ s⁻¹	1.15e+06
12E12-huVH7 + huVL2(P08938) (antibody, V domains shown, Humanized 12E12) VH: QVQLVQSGAEVKKPGASVKVSCKASGYTITDFYIHWVRQAPGKGLEWMGRVDPEDGNTEYAQKFQGRVTMTTDTSTDTAYMELSSLRSEDTAVYYCSTWDGFSYFDYWGQGTTVTVSS VL: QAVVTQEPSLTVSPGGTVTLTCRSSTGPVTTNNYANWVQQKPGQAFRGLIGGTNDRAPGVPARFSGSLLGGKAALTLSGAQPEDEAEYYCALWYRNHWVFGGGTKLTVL	M⁻¹ s⁻¹	1.08e+06
12E12-huVH6 + huVL4(P08940) (antibody, V domains shown, Humanized 12E12) VH: QVQLVQSGAEVKKPGASVKVSCKASGYTITDFYIHWVRQAPGQGLEWIGRVDPEDGNTEYAPNFQDRATMTTDTSTSTAYLELSSLRSEDTAVYYCSTWDGFSYFDYWGQGTTVTVSS VL: EAVVTQSPATLSLSPGERATLSCRSSTGPVTTNNYANWVQQKPGQAFRGLIGGTNDRAPGIPARFSGSGSGTDTTLTISSLQPEDFAVYYCALWYRNHWVFGGGTKLEIK	M⁻¹ s⁻¹	844000
12E12huVH4 + huVL4(P07291) (antibody, V domains shown, Humanized 12E12) VH: EVQLVQSGAEVKKPGATVKISCKVSGFNIKDFYIHWVQQAPGKGLEWIGRVDPEDGNTEYAPNFQDRVTITADTSTDTAYMELSSLRSEDTAVYYCSTWDGFSYFDYWGQGTTVTVSS VL: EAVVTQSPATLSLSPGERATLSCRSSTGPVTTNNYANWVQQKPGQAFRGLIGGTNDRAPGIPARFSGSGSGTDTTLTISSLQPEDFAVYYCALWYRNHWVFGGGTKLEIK	M⁻¹ s⁻¹	782000

# evaluate next
// query Consider the binder 12E12huVH3 + huVL4(P07290) (antibody, V domains shown, Humanized 12E12) VH: QVQLVQSGAEVKKPGASVKVSCKVSGFNIKDFYIHWVRQAPGKGLEWMGRVDPEDGNTEYAQKFQGRVTMTTDTSTDTAYMELSSLRSEDTAVYYCSTWDGFSYFDYWGQGTTVTVSS VL: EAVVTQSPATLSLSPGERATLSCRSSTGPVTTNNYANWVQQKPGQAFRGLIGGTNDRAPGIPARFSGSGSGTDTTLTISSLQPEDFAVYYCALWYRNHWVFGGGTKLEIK and give its measured kon.
// result 810000
